- Tested on: 3D7-strain P. falciparum asexual parasites
- ASSAY_PROCEDURE: P. falciparum asexual growth inhibition assay (Pf GIA)
- Assay type: cell-based, Plasmodium falciparum
- STATED_CONDITIONS: dose response confirmation; read-out: Pf asexual growth inhibition assays IC50
READOUT: IC50
Don't forget the unit after the number, please.

* COc1nc2c(CCN3CC[C@H](NCc4ccc5c(c4)NC(=O)CO5)[C@H](O)C3)c(Cl)cnc2cc1F.Cl [TCMDC-135805] | 1320 nM

Hello, I would appreciate it if you could give IC50 for each entry below.
1. COc1ccc2nccc([C@@H](O)CN3CCC(NC(=O)c4ccc5cc[nH]c5c4)CC3)c2c1.CS(=O)(=O)O [TCMDC-140743]
2. CS(=O)(=O)Cc1ccc(Nc2ncc(Cl)c(Nc3cccnc3C(N)=O)n2)cc1.Cl [TCMDC-134165]
3. COc1ccc2ncc(F)c(CCN3CC[C@H](NCc4cc(C#N)c5c(c4)OCCO5)[C@H](O)C3)c2c1 [TCMDC-136207]
4. Cc1cc(=O)[nH]c(-n2nc(C)cc2NC(=O)C2(c3ccc(Cl)cc3)CCCC2)n1 [TCMDC-124943]

A.
1130 nM
969 nM
795 nM
967 nM
